Values were extracted from ChEMBL document CHEMBL3988442.

Target: Sialic acid-binding Ig-like lectin 9 (Homo sapiens)
Experiment: Hs-Siglec9 ALPHAscreen SOP 20170721
Set-up: scale not given: direction of the effect not stated beside the values
Conditions: 10 µM
Recorded measurements of Percent Effect, one per entry
Answer with a number only, understood to be in %.

Using known records, supply Percent Effect for Cc1cccnc1NC(=O)CSc1ccc2c(c1)OCCO2
-6.94

---
Using known records, supply Percent Effect for Cc1ccccc1OCCC(=O)N1CCCC(n2cncn2)C1 (stereo not drawn)
4.87

Using known records, supply Percent Effect for O=C(Nc1ccccc1F)N1CCN(Cc2noc(C3CC3)n2)CC1
0.391

Using known records, supply Percent Effect for O=C(NCCn1ccnc1)NCC(c1ccco1)N1CCCCC1 (stereo not drawn)
2.57

Using known records, supply Percent Effect for CN(CC1CC1)C(=O)CN(Cc1cccc(O)c1)C1CCC(O)CC1 (stereo not drawn)
8.92

Using known records, supply Percent Effect for CN(c1ccc(C(=O)NCCCN2CCOCC2)c(Cl)c1)S(C)(=O)=O
13.2

Using known records, supply Percent Effect for Cc1noc(C)c1CN1CCN(Cc2nccn2C)C(C)C1 (stereo not drawn)
2.86

Using known records, supply Percent Effect for Cn1ncc2c(N3CCN(C(N)=O)CC3)nc(C3CCCC3)nc21
-4.81

Using known records, supply Percent Effect for CC(C)c1nnc2n1CCN(C(=O)c1cccc(C(F)(F)F)c1)C2
10

Using known records, supply Percent Effect for O=C(NCc1ccco1)C1CCCN1Cc1nc(-c2ccco2)no1 (stereo not drawn)
-7.57

Using known records, supply Percent Effect for CCC1CN(C(=O)c2ccc(=O)[nH]c2)CCC(=O)N1Cc1ccccc1 (stereo not drawn)
-12.5

Using known records, supply Percent Effect for NC(=O)CSCC(=O)N1CCc2cc(Cl)cc(Cl)c2C1
36.8

Using known records, supply Percent Effect for COc1ccc(OC)c(-c2nc(CN(C)Cc3nncn3C)c(C)o2)c1
-0.646

====

Recorded measurements of Percent Effect, one per entry
Biological target: Protein translocase subunit SecA (Escherichia coli (strain K12)) (UniProt P10408)
Sequence (P10408 whole entry): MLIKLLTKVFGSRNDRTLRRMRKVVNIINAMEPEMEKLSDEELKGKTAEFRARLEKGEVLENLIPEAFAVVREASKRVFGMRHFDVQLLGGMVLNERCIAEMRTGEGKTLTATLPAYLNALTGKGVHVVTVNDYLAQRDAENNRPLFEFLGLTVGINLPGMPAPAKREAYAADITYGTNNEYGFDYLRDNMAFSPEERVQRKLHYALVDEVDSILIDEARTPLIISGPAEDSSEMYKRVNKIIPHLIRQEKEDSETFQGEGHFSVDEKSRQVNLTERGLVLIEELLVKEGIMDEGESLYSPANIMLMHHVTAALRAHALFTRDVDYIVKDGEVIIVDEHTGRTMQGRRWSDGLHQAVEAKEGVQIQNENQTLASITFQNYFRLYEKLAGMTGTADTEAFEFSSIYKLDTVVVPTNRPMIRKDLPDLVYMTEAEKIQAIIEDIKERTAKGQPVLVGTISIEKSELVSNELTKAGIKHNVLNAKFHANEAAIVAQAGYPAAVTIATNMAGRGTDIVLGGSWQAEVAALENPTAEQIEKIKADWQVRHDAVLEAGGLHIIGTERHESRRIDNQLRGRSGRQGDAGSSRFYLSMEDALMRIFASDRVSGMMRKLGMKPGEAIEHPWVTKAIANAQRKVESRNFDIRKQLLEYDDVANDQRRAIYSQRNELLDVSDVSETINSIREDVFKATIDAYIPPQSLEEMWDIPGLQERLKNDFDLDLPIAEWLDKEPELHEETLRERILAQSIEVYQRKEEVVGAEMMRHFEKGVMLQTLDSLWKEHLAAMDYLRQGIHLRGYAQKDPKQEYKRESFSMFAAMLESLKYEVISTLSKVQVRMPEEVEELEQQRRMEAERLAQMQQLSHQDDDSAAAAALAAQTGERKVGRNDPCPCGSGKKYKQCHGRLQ
Assay: Assay to Identify E. coli SecA ATPase Inhibitors
Assay type: functional
Design: scale not given: direction of the effect not stated beside the values
Settings: 30 µM
Results with a measured potency or affinity are listed apart.
Answer with a number only, understood to be in %.

Using known records, supply Percent Effect for Cc1ccc(CNC(CN2CCN(C)CC2)c2ccccc2)cc1 (centres undefined)
-5.66

Using known records, supply Percent Effect for CCN1CCO[C@]2(CCC[C@H]2COCc2csc(C)n2)C1
-5.1

Using known records, supply Percent Effect for O=C(C1CC1)N1CCN(Cc2coc(-c3ccc(Cl)cc3)n2)CC1
-5.03

Using known records, supply Percent Effect for Cc1ccsc1CN(Cc1ccccn1)CC(C)C
-2.24

Using known records, supply Percent Effect for O=C(CC1CC1)N1CCn2cc(Cn3cncn3)nc2C1
-2.33

Using known records, supply Percent Effect for CN(Cc1nccn1CC(F)(F)F)C(=O)c1cccc(C#N)c1
-3.37

---
Using known records, supply Percent Effect for Cc1cccc(OCCC(=O)N2CCCN(C(N)=O)CC2)c1C
-5.63

Using known records, supply Percent Effect for CCC(=O)NCCc1cc(N2CCN(C(C)=O)CC2)nc(C2CC2)n1
-1.34

Using known records, supply Percent Effect for c1cc(C2CCCN2Cc2nnnn2C2CC2)cs1 (centres undefined)
-2.2

====

Organism: Homo sapiens
Assay: To identify inhibition of the IFN signalling (Jak-Stat) pathway via expression of an eGFP reporter gene under the control of an IFN-stimulated response element (ISRE) containing MxA promoter.
Type: functional
Parameters: scale not given: direction of the effect not stated beside the values
Conditions: 30 µM
Rule: fulfilled for Percent Effect not less than 10%, not fulfilled for anything less.

# count of solved cases: 10
Please indicate if the recorded Percent Effect for Cn1cnnc1S(=O)(=O)C1CCN(S(=O)(=O)C2CC2)CC1 meets or exceeds 10%.
not fulfilled

Please indicate if the recorded Percent Effect for CN1CCN(CC2CC2)C(=O)c2cnc(N3CCCCC3)nc21 meets or exceeds 10%.
fulfilled

Please indicate if the recorded Percent Effect for Cc1nn2cccnc2c1C(=O)N1CCCC(Nc2ccccc2)C1 (stereo unspecified) meets or exceeds 10%.
not fulfilled

Please indicate if the recorded Percent Effect for CN(c1ccc(C(=O)NCCCN2CCOCC2)c(Cl)c1)S(C)(=O)=O meets or exceeds 10%.
not fulfilled

Please indicate if the recorded Percent Effect for CN(C)C(C)(C)CNC(=O)C(C)(C)c1ccccc1F meets or exceeds 10%.
fulfilled

Please indicate if the recorded Percent Effect for CCc1nc(CN2CCCN(C(=O)c3c(C)noc3C)CC2)cs1 meets or exceeds 10%.
fulfilled

Please indicate if the recorded Percent Effect for Cc1ncsc1C(=O)N(C)CCc1ccncc1 meets or exceeds 10%.
fulfilled

Please indicate if the recorded Percent Effect for C1CCCN(c2nc(C3CC3)ns2)CC1 meets or exceeds 10%.
fulfilled

Please indicate if the recorded Percent Effect for CN1CCN(C(=O)c2cccc(OCc3cscn3)c2)CC1 meets or exceeds 10%.
fulfilled

Please indicate if the recorded Percent Effect for Cc1cnn(CCNCCCOc2ccccc2)c1 meets or exceeds 10%.
not fulfilled

---
Please indicate if the recorded Percent Effect for COc1ccc(C(CO)NC(=O)Nc2cccc(C#N)c2)cc1 (stereo unspecified) meets or exceeds 10%.
not fulfilled

Please indicate if the recorded Percent Effect for Cc1ccc(CN2CCc3c(C(=O)N(C)C)nn(C)c3C2)s1 meets or exceeds 10%.
not fulfilled

Please indicate if the recorded Percent Effect for CN(C)C(=O)N1CCc2c(CNc3ncccn3)cncc2C1 meets or exceeds 10%.
not fulfilled

Please indicate if the recorded Percent Effect for O=C(Cc1cccnc1)N1CCC(OCc2ccccc2)CC1 meets or exceeds 10%.
fulfilled

Please indicate if the recorded Percent Effect for c1cc2nccc(CC3CCCN(Cc4ncc[nH]4)CC3)c2cn1 (stereo unspecified) meets or exceeds 10%.
fulfilled

Please indicate if the recorded Percent Effect for COc1ncc(C2(O)CCN(Cc3ccccc3O)CC2)c(OC)n1 meets or exceeds 10%.
not fulfilled

====

Test system: Trypanosoma cruzi
Assay: Trypanosoma cruzi phosphomannomutase and mannose-1-phosphate guanylyltransferase assay
Type: functional
Design: scale not given: direction of the effect not stated beside the values
Details: 10 µM
Recorded measurements of Percent Effect, one per entry
Answer with a number only, understood to be in %.

Solved entries (count: 8):
Using known records, supply Percent Effect for CN(Cc1ncc[nH]1)S(=O)(=O)c1cccc(C(=O)N2CCOCC2)c1
-1.76

Using known records, supply Percent Effect for O=C(c1ccc(OCC2CC2)nc1)N1CCCC(n2ccnc2)C1 (stereo not drawn)
2.72

Using known records, supply Percent Effect for CCn1cc(CN(C)S(=O)(=O)c2cc(Cl)ccc2Cl)cn1
-6.09

Using known records, supply Percent Effect for CCCN(CCO)C(=O)C1CCC(=O)N(CCc2ccc(Cl)cc2)C1 (stereo not drawn)
2.23

Using known records, supply Percent Effect for c1cnnc(N2CCCC(NCc3ccc(-n4ccnc4)cc3)C2)c1 (stereo not drawn)
-0.49

Using known records, supply Percent Effect for FC(F)(F)Cc1noc(CN2CCCC2c2noc(C3CC3)n2)n1 (stereo not drawn)
4.06

Using known records, supply Percent Effect for Cc1cc(F)ccc1OC1(C(=O)O)CCN(Cc2ccncc2)CC1
3.21

Using known records, supply Percent Effect for O=C(c1cccc(OC2CCCC2)c1)N1CCCC(n2cncn2)C1 (stereo not drawn)
5.57

Then there is this compound:
Using known records, supply Percent Effect for CC(=O)N1CCNCC1c1cccc(C(=O)N(C)C)c1 (stereo not drawn)
-4.94

====

Molecular target: Tyrosyl-tRNA synthetase, putative (Trypanosoma cruzi (strain CL Brener)) (UniProt Q4DSP6)
Sequence (whole entry): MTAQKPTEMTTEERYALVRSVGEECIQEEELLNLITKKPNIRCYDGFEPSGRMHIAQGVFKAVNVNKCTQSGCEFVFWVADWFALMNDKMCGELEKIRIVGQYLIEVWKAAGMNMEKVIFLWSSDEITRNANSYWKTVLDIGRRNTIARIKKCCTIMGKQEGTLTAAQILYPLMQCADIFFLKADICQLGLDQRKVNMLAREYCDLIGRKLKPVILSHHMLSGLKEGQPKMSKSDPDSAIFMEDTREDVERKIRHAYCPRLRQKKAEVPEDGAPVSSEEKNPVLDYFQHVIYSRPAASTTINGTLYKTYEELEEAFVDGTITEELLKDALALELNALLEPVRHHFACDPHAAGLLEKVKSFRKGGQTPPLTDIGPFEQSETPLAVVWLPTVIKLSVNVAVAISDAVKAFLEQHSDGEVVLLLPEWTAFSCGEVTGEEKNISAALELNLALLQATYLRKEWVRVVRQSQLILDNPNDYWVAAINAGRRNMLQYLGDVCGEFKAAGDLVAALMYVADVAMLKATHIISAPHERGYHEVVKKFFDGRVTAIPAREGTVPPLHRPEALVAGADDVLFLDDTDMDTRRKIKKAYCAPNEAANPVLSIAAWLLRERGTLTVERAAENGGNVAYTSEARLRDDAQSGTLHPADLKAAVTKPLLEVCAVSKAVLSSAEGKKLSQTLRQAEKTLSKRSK
Test: Trypanosoma cruzi tyrosyl tRNA synthetase (TcYRS) SOP
Assay type: functional
Design: scale not given: direction of the effect not stated beside the values
Conditions: 30 µM
Recorded endpoint: Percent Effect
Form entry: enter the amount, then its unit.

Solved entries (count: 6):
Using known records, supply Percent Effect for Cc1occc1C(=O)N1CCC2(CCC2NC(=O)c2ccn(C)c2)CC1 (centres undefined)
15.4%

Using known records, supply Percent Effect for Cc1ncsc1C(=O)NC1CCN(CC(=O)N(C)c2ccccc2)CC1
18.5%

Using known records, supply Percent Effect for O=C1CCC2(CCCN(C(=O)c3cscn3)C2)CN1CCc1c[nH]cn1 (centres undefined)
13.6%

Using known records, supply Percent Effect for COc1ccc(-c2ccnc3c2C(=O)CCC3)cc1
7.5%

Using known records, supply Percent Effect for O=C(Cc1cccnc1)N1CCC2(CC1)CCN(C1CCOCC1)C2
-1.24%

Using known records, supply Percent Effect for CC(C)N1CCOCC2(CN(Cc3nccs3)CCO2)C1 (centres undefined)
14.1%

---
Using known records, supply Percent Effect for CC(C(=O)N1CCCC1)N1CCC(c2nccn2CC2CCC2)CC1 (centres undefined)
12.2%

Using known records, supply Percent Effect for O=C(NCCn1ccnc1)NCC(c1ccco1)N1CCCCC1 (centres undefined)
2.35%

Using known records, supply Percent Effect for OCC1CCCN1c1cc(NCCNc2ccccn2)ncn1 (centres undefined)
10%

Using known records, supply Percent Effect for Cc1ncc2c(n1)CN(Cc1nnc(Cc3ccccc3)o1)CC2
28.1%

Using known records, supply Percent Effect for Cn1cccc1C(CNC(=O)c1ccc(F)cc1F)N1CCCCCC1 (centres undefined)
21.8%

Using known records, supply Percent Effect for CN1CCN(c2cc(CCNC(=O)C3CCC3)nc(C3CC3)n2)CC1
9.09%

Using known records, supply Percent Effect for CCOc1ccnc(N2CCN(C(=O)c3cn[nH]c3CC)CC2)n1
24.1%
